Where do these numbers come from? They come from patent US20210040134A1.

system-name: human TLR2 (Homo sapiens, UniProt O60603)
Construct: host or cells: recombinant HEK-293-TLR cell lines
Sequence (O60603 21-784): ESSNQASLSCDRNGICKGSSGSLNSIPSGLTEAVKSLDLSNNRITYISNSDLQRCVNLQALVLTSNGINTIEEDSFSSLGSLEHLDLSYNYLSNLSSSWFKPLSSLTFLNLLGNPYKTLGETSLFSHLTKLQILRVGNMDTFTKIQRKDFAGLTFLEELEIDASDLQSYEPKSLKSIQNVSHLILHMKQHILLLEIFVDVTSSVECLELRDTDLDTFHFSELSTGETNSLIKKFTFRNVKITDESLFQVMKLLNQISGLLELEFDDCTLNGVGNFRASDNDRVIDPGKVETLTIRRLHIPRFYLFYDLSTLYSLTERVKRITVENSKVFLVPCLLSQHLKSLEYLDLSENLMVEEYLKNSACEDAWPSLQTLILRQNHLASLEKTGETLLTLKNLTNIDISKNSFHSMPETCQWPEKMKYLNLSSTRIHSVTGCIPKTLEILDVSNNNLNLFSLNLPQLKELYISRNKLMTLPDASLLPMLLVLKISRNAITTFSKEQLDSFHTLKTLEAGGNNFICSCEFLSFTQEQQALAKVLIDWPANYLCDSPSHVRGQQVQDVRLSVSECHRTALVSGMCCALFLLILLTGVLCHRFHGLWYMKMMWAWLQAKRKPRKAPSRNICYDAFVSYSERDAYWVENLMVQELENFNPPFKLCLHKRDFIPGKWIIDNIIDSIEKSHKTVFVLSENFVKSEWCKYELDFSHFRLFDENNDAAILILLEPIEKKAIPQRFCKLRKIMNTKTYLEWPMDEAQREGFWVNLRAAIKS
assay: TLR2 reporter assay (HEK-293-TLR, SEAP)
Type: cell-based
details: concentrations up to 20 uM
reported-metric: TLR2 stimulation (in words)

CC[C@H]1OC(=O)[C@H](C)[C@@H](O[C@H]2C[C@@](C)(OC)[C@@H](O)[C@H](C)O2)[C@H](C)[C@@H](O[C@@H]2O[C@H](C)C[C@H](N(C)C)[C@H]2O)[C@](C)(O)C[C@@H](C)C(=O)[C@H](C)[C@@H](O)[C@]1(C)O [Erythromycin, reference compound]	little or no stimulation
CC[C@H]1OC(=O)[C@H](C)[C@@H](O[C@H]2C[C@@](C)(OC)[C@@H](O)[C@H](C)O2)[C@H](C)[C@@H](O[C@@H]2O[C@H](C)C[C@H](N(C)C)[C@H]2O)[C@](C)(O)C[C@@H](C)CN(C)[C@H](C)[C@@H](O)[C@]1(C)O [Azithromycin, reference compound]	little or no stimulation
CC[C@H]1OC(=O)[C@H](C)[C@@H](O[C@H]2CC(N(C)C)[C@H](O)C(C)O2)[C@H](C)[C@@H](O)[C@](C)(O)C[C@@H](C)C(=O)[C@H](C)[C@@H](O)[C@H]1C (some centres unmarked) [Compound 3]	little or no stimulation

---

assay: Caco-2 bidirectional permeability assay
Assay type: in vitro ADME
details: human, Caco-2; B to A permeability divided by A to B permeability
reported-metric: efflux ratio at 90 minutes, 10 μM
One number for each entry.

Please give the documented efflux ratio at 90 minutes, 10 μM of CC[C@H]1OC(=O)[C@H](C)[C@@H](O[C@H]2C[C@@H](N(C)C)[C@H](O)[C@@H](C)O2)[C@H](C)[C@@H](O)[C@](C)(O)C[C@@H](C)CN(C)[C@H](C)[C@@H](O)[C@]1(C)O [Compound 1]
63

---

assay: Human microsome stability assay
Type: in vitro ADME
details: pH 7.4, human liver microsomes, read-out: T½
The label class 1 is reserved for half-life at 1 uM strictly under 2 h; class 0 covers values equal to or above it.

Example entries and their recorded answers appear below.
CC[C@H]1OC(=O)[C@H](C)[C@@H](O[C@H]2CC(NC)[C@H](O)C(C)O2)[C@H](C)[C@@H](O)[C@](C)(O)C[C@@H](C)C(=O)[C@H](C)[C@@H](O)[C@H]1C (stereo partly drawn)	class 1
CC[C@H]1OC(=O)[C@H](C)[C@@H](O[C@H]2C[C@@](C)(OC)[C@@H](O)[C@H](C)O2)[C@H](C)[C@@H](O[C@@H]2O[C@H](C)C[C@H](N(C)C)[C@H]2O)[C@](C)(O)C[C@@H](C)CN(C)[C@H](C)[C@@H](O)[C@]1(C)O [Azithromycin, reference compound]	class 0
CC[C@H]1OC(=O)[C@H](C)[C@@H](O[C@H]2C[C@@H](N(C)C)[C@H](O)[C@@H](C)O2)[C@H](C)[C@@H](O)[C@](C)(O)C[C@@H](C)CN(C)[C@H](C)[C@@H](O)[C@]1(C)O	class 1
CC(O)[C@H]1OC(=O)[C@H](C)[C@@H](O[C@H]2C[C@@H](N(C)C)[C@H](O)[C@@H](C)O2)[C@H](C)[C@@H](O)[C@](C)(O)C[C@@H](C)C(=O)[C@H](C)[C@@H](O)[C@H]1C (stereo partly drawn) [Compound 9, 14-hydroxy angolosamine erythronolide B]	class 1
CC[C@H]1OC(=O)[C@H](C)[C@@H](O[C@H]2CC(N(C)C)[C@H](O)C(C)O2)[C@H](C)[C@@H](O)[C@](C)(O)C[C@@H](C)C(O)[C@H](C)[C@@H](O)[C@H]1C (stereo partly drawn)	class 1

Shift focus to the following entry.
Find out if reported half-life at 1 uM for CC[C@H]1OC(=O)[C@H](C)[C@@H](O[C@H]2C[C@@](C)(OC)[C@@H](O)[C@H](C)O2)[C@H](C)[C@@H](O[C@@H]2O[C@H](C)C[C@H](N(C)C)[C@H]2O)[C@](C)(O)C[C@@H](C)C(=O)[C@H](C)[C@@H](O)[C@]1(C)O [Erythromycin, reference compound] is less than 2 h
class 1
